For each record, write down the corresponding glomerular separation.
system: Danio rerio Tg(wt1b:EGFP) embryo, pronephros; experiment: glomerular separation, fold change vs DMSO control; higher = glomeruli further apart (abnormal); settings: 25 µM; exposure: 24-48 hpf
Counter-ions that a name gives are not always drawn.
Answers are plain numbers.

- molecule: "CC(Oc1ccccc1)C(=O)N[C@@H]1C(=O)N2[C@@H]1SC(C)(C)[C@@H]2C(=O)O (stereo partly drawn) [Phenethicillin potassium salt]"
  testedOn: "Danio rerio Tg(wt1b:EGFP) embryo, pronephros"
  observationType: "glomerular separation"
  result: 0.88
- molecule: "CCOC(=O)C(C)(C)Oc1ccc(Cl)cc1 [Clofibrate]"
  testedOn: "Danio rerio Tg(wt1b:EGFP) embryo, pronephros"
  observationType: "glomerular separation"
  result: 2.62
- molecule: "CCCCc1nc(Cl)c(CO)n1Cc1ccc(-c2ccccc2-c2nnn[nH]2)cc1 [Losartan]"
  testedOn: "Danio rerio Tg(wt1b:EGFP) embryo, pronephros"
  observationType: "glomerular separation"
  result: 0.969
- molecule: "Fc1ccc(C(c2ccc(F)cc2)N2CCN(C/C=C/c3ccccc3)CC2)cc1 [Flunarizine dihydrochloride]"
  testedOn: "Danio rerio Tg(wt1b:EGFP) embryo, pronephros"
  observationType: "glomerular separation"
  result: 1.22
- molecule: "O=C(O)CCNC(=O)c1ccc(/N=N/c2ccc(O)c(C(=O)O)c2)cc1 [Balsalazide Sodium]"
  testedOn: "Danio rerio Tg(wt1b:EGFP) embryo, pronephros"
  observationType: "glomerular separation"
  result: 0.832

I'm hoping you can list glomerular separation for every molecule here, please.
1. CC(CNC1CCCCC1)OC(=O)c1ccccc1 (stereo not drawn) [Hexylcaine hydrochloride]
2. CC(=O)S[C@@H]1CC2=CC(=O)CC[C@]2(C)[C@H]2CC[C@@]3(C)[C@@H](CC[C@@]34CCC(=O)O4)[C@H]12 [Spironolactone]

*A*
1: 0.859; 2: 0.838

====

tested on: Danio rerio Tg(wt1b:EGFP) embryo, pronephros; assay: pronephric angle neck segment to proximal convoluted tubule (mean of left and right), fold change vs DMSO control; higher = larger pronephric angle; conditions: 25 µM; exposure: 24-48 hpf
Structures can show the parent of a compound that is named as a salt.
Could you label it Criterion met if measured pronephric angle neck segment is 1 or higher, and Criterion not met otherwise?

Please review the entries below; each comes with its answer.
- molecule: "OCc1cc(C(O)CNCCCCCCOCCCCc2ccccc2)ccc1O (stereo not drawn) [Salmeterol]"
  assignedCategory: "Criterion met"
- molecule: "CN[C@@H]1[C@H](O[C@H]2[C@H](O[C@H]3[C@H](O)[C@@H](O)[C@H](N=C(N)N)[C@@H](O)[C@@H]3N=C(N)N)O[C@@H](C)[C@]2(O)C=O)O[C@@H](CO)[C@H](O)[C@H]1O [Streptomycin sulfate]"
  assignedCategory: "Criterion not met"
- molecule: "NC1CCN(c2nc3c(cc2F)c(=O)c(C(=O)O)cn3-c2ccc(F)cc2F)C1 (stereo not drawn) [Tosufloxacin hydrochloride]"
  assignedCategory: "Criterion met"

Now examine the next entry.
*Q* Decide: pronephric angle neck segment of O=C1OCCN1/N=C/c1ccc([N+](=O)[O-])o1 [Furazolidone] >= 1?
*A* Criterion not met

====

system: Danio rerio Tg(wt1b:EGFP) embryo, pronephros; assay: fraction of imaged embryos annotated as normal kidney; higher = less nephrotoxic; extreme values may be limits of the assay; settings: 25 µM; exposure: 24-48 hpf
Could you label it Criterion met if measured fraction of imaged embryos annotated as normal kidney is 0.8 or higher, and Criterion not met otherwise?

Please review the entries below; each comes with its answer.
- compound: "Cc1onc(-c2ccccc2)c1-c1ccc(S(N)(=O)=O)cc1 [Valdecoxib]"
  assignedCategory: "Criterion met"
- compound: "C[C@H]1C[C@@H]2[C@H]([C@@H](O)C[C@@]3(C)[C@H]2CC[C@]3(O)C(=O)CO)[C@@]2(C)C=CC(=O)C=C12 [Methylprednisolone, 6-alpha]"
  assignedCategory: "Criterion met"
- compound: "NC(=O)c1cnccn1 [Pyrazinamide]"
  assignedCategory: "Criterion not met"
- compound: "CCN(CC)CCCC(C)Nc1ccnc2cc(Cl)ccc12 (configuration not stated) [Chloroquine diphosphate]"
  assignedCategory: "Criterion met"
- compound: "CN1CCCCC1CCN1c2ccccc2Sc2ccc([S+](C)[O-])cc21 (configuration not stated) [Mesoridazine besylate]"
  assignedCategory: "Criterion met"

*Q* Decide: fraction of imaged embryos annotated as normal kidney of COc1cnc(NS(=O)(=O)c2ccc(N)cc2)nc1 [Sulfameter] >= 0.8?
*A* Criterion met

*Q* Decide: fraction of imaged embryos annotated as normal kidney of C[C@H]1O[C@@H](O[C@H]2[C@@H](O)C[C@H](O[C@H]3[C@@H](O)C[C@H](O[C@H]4CC[C@@]5(C)[C@H](CC[C@@H]6[C@@H]5C[C@@H](O)[C@]5(C)[C@@H](C7=CC(=O)OC7)CC[C@]65O)C4)O[C@@H]3C)O[C@@H]2C)C[C@H](O)[C@@H]1O [Digoxin] >= 0.8?
*A* Criterion not met

====

tested on: Danio rerio Tg(wt1b:EGFP) embryo, pronephros; assay: glomerular separation, fold change vs DMSO control; higher = glomeruli further apart (abnormal); details: 25 µM; exposure: 24-48 hpf
Counter-ions that a name gives are not always drawn.
Could you label it label 1 if measured glomerular separation is 1 or higher, and label 0 otherwise?

*Q* Decide: glomerular separation of CCCCCCCN(CC)CCCC(O)c1ccc(NS(C)(=O)=O)cc1 (stereo not drawn) [Ibutilide fumarate] >= 1?
*A* label 0

*Q* Decide: glomerular separation of NC(=O)N1c2ccccc2CC(=O)c2ccccc21 [Oxcarbazepine] >= 1?
*A* label 0

*Q* Decide: glomerular separation of CN1C(=O)OC(C)(C)C1=O [Trimethadione] >= 1?
*A* label 0

*Q* Decide: glomerular separation of C=CCSCC1Nc2cc(Cl)c(S(N)(=O)=O)cc2S(=O)(=O)N1 (stereo not drawn) [Althiazide] >= 1?
*A* label 1

*Q* Decide: glomerular separation of Cc1cc(C2CCCCC2)n(O)c(=O)c1 [Ciclopirox ethanolamine] >= 1?
*A* label 1

*Q* Decide: glomerular separation of CN(C)[C@@H]1C(O)=C(C(N)=O)C(=O)[C@@]2(O)C(O)=C3C(=O)c4c(O)cccc4[C@@](C)(O)[C@H]3C[C@@H]12 [Tetracycline hydrochloride] >= 1?
*A* label 1

====

For each record, write down the corresponding glomerular separation.
tested on: Danio rerio Tg(wt1b:EGFP) embryo, pronephros; assay: glomerular separation, fold change vs DMSO control; higher = glomeruli further apart (abnormal); details: 25 µM; exposure: 24-48 hpf
Counter-ions that a name gives are not always drawn.
One number for each entry.

Here is how some compounds turned out for glomerular separation.
- compound: "CN(CCOc1ccc(CC2SC(=O)NC2=O)cc1)c1ccccn1 (configuration not stated) [Rosiglitazone Hydrochloride]"
  observationType: "glomerular separation"
  result: 1.04
- compound: "c1ccc2[nH]c(-c3cscn3)nc2c1"
  observationType: "glomerular separation"
  result: 1.4
- compound: "O=P(O)(O)C(O)(Cc1cccnc1)P(=O)(O)O [Risedronic acid monohydrate]"
  observationType: "glomerular separation"
  result: 0.755
- compound: "CCCc1nc(C)c2c(=O)nc(-c3cc(S(=O)(=O)N4CCN(CC)CC4)ccc3OCC)[nH]n12"
  observationType: "glomerular separation"
  result: 1.24

I'm hoping you can list glomerular separation for every compound here, please.
1. CC(=O)Oc1cccc2c1C(=O)c1c(OC(C)=O)cc(C(=O)O)cc1C2=O
2. CN(C)CCC(c1ccc(Cl)cc1)c1ccccn1 (configuration not stated) [Chlorpheniramine maleate]
3. CC(=O)OCC(=O)[C@@]12N=C(C)O[C@@H]1C[C@H]1[C@@H]3CCC4=CC(=O)C=C[C@]4(C)[C@H]3[C@@H](O)C[C@@]12C

*A*
1: 0.691; 2: 1.56; 3: 1.15

I'm hoping you can list glomerular separation for every compound here, please.
1. CC(=O)Oc1cc(C(F)(F)F)ccc1C(=O)O
2. CO[C@@]1(NC(=O)C2SC(=C(C(N)=O)C(=O)O)S2)C(=O)N2C(C(=O)O)=C(CSc3nnnn3C)CS[C@@H]21 (some centres not stated)
3. CN1CCN(C2=Nc3cc(Cl)ccc3Nc3ccccc32)CC1
4. CCOc1ccc(Cc2nccc3cc(OCC)c(OCC)cc23)cc1OCC [Ethaverine hydrochloride]
5. CC=CC1=C(C(=O)O)N2C(=O)[C@@H](NC(=O)[C@H](N)c3ccc(O)cc3)[C@H]2SC1
6. O=C(O)c1ccccc1C(=O)Nc1ccc(S(=O)(=O)Nc2nccs2)cc1

*A*
1: 1.26; 2: 1.24; 3: 0.792; 4: 0.975; 5: 0.967; 6: 0.926

====

tested on: Danio rerio Tg(wt1b:EGFP) embryo, pronephros; test: fraction of imaged embryos annotated as normal kidney; higher = less nephrotoxic; extreme values may be limits of the assay; conditions: 25 µM; exposure: 24-48 hpf
Counter-ions that a name gives are not always drawn.
Could you label it Condition met if measured fraction of imaged embryos annotated as normal kidney is 0.8 or higher, and Condition not met otherwise?

- compound: "CCn1cc(C(=O)O)c(=O)c2cc(F)c(N3CCNC(C)C3)c(F)c21 (stereo not drawn) [Lomefloxacin hydrochloride]"
  testedOn: "Danio rerio Tg(wt1b:EGFP) embryo, pronephros"
  assignedCategory: "Condition not met"
- compound: "COc1ccc2c(c1)N(C[C@H](C)CN(C)C)c1ccccc1S2 [Methotrimeprazine maleat salt]"
  testedOn: "Danio rerio Tg(wt1b:EGFP) embryo, pronephros"
  assignedCategory: "Condition met"
- compound: "C[C@]12CC[C@@H]3c4ccc(O)cc4CC[C@H]3[C@@H]1C[C@@H](O)[C@@H]2O"
  testedOn: "Danio rerio Tg(wt1b:EGFP) embryo, pronephros"
  assignedCategory: "Condition met"
- compound: "CCOC(=O)[N-]c1c[n+](N2CCOCC2)no1"
  testedOn: "Danio rerio Tg(wt1b:EGFP) embryo, pronephros"
  assignedCategory: "Condition met"
- compound: "CN(Cc1cnc2nc(N)nc(N)c2n1)c1ccc(C(=O)N[C@@H](CCC(=O)O)C(=O)O)cc1 [Methotrexate]"
  testedOn: "Danio rerio Tg(wt1b:EGFP) embryo, pronephros"
  assignedCategory: "Condition met"

*Q* Decide: fraction of imaged embryos annotated as normal kidney of CS(=O)(=O)c1ccc(C2=C(c3ccccc3)C(=O)OC2)cc1 >= 0.8?
*A* Condition met

*Q* Decide: fraction of imaged embryos annotated as normal kidney of O=c1[nH]c(=O)n([C@H]2C[C@H](O)[C@@H](CO)O2)cc1I >= 0.8?
*A* Condition not met

*Q* Decide: fraction of imaged embryos annotated as normal kidney of C#CCN(C)Cc1ccccc1 [Pargyline hydrochloride] >= 0.8?
*A* Condition met

Origin of values: the supplement of paper PMC7366291
